Where do these numbers come from? They come from the supplement of paper PMC6555819.

- System: RARa homodimer (NR concentration 270 nM)
- protocolText: PBM binding z-score (relative to random genomic background probes); higher = stronger binding; sequences stand for … in GC…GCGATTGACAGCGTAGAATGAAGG
// bucketize PBM binding z-score: range 1 (below -0.02), range 2 (-0.02 to below 0.8), range 3 (0.8 or more)

### Prompt Form field 'band' for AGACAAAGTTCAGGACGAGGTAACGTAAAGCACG
### Response range 2

### Prompt Query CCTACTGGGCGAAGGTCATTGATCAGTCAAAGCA next
### Response range 1

### Prompt Query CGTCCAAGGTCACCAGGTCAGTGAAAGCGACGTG next
### Response range 3

### Prompt Query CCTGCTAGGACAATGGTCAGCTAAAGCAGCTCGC next
### Response range 1

### Prompt Query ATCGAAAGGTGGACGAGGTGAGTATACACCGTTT next
### Response range 2

### Prompt Query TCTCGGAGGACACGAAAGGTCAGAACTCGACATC next
### Response range 3

### Prompt Query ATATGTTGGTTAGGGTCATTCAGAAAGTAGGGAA next
### Response range 3

### Prompt Query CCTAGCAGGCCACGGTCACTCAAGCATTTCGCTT next
### Response range 1

### Prompt Query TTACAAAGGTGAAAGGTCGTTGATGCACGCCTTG next
### Response range 3

### Prompt Query GCTGCTAGGTCAACTGATGGTCAGCTAGAGCTCG next
### Response range 2

### Prompt Query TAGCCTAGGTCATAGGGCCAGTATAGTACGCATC next
### Response range 1

### Prompt Query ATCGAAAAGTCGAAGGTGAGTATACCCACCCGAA next
### Response range 2

### Prompt Query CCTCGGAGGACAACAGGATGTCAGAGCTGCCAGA next
### Response range 2

### Prompt Query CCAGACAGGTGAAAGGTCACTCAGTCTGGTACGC next
### Response range 3

### Prompt Query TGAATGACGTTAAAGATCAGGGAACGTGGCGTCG next
### Response range 2

### Prompt Query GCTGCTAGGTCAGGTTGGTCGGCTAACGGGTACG next
### Response range 1

### Prompt Query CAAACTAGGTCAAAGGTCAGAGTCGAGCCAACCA next
### Response range 3

### Prompt Query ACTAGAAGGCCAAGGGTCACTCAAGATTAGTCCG next
### Response range 3

### Prompt Query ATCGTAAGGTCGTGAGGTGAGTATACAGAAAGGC next
### Response range 3

### Prompt Query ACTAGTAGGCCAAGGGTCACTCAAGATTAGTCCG next
### Response range 2

### Prompt Query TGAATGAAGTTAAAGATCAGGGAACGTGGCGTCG next
### Response range 1

### Prompt Query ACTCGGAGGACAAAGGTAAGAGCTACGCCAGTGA next
### Response range 1

### Prompt Query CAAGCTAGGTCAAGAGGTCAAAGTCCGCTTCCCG next
### Response range 3

### Prompt Query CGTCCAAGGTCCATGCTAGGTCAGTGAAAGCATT next
### Response range 1

### Prompt Query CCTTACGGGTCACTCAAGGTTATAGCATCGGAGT next
### Response range 2

### Prompt Query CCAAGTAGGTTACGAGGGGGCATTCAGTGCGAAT next
### Response range 3

### Prompt Query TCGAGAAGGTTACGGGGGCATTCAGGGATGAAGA next
### Response range 2

### Prompt Query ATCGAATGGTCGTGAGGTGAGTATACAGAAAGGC next
### Response range 2

### Prompt Query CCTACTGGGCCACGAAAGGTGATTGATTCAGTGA next
### Response range 1
